So I've got a bunch of binders here, and I need their interaction score values.
# assayed-target: T1, P10-AA
# T1 chain: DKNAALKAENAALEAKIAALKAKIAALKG
# assay-details: two-hybrid library CCmax;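 note: natural log of median RNA to DNA barcode read ratio; higher means stronger binding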
Output: the number by itself.

Lookup: I am curious: what interaction score value has been reported for DKNAALKAENAALEAKIAALKAKIAALKG [P10-AA] ?
Found: -0.869

Lookup: I am curious: what interaction score value has been reported for KRLKQIEKRLQAKEWEKAQLRKELQALRK [4H_APH4] ?
Found: -1.38

Lookup: Look at this binder and give its reported interaction score. KRAKQLRKRLQALEWQLAQIRKELQAAEK [4H_APH3]
Found: -0.731

Lookup: Could you share which interaction score value was measured for KRLKQLRKRKQAKRWEEAQIEKELQAIEK [4H_APH2] ?
Found: -1.63

Entry source: paper PMC10397247
